# Tested on: Lovo (G13D) cells
# Experiment description: Cell viability assay (CELLTITER-GLO), Lovo cells
# Assay type: cell-based
# Condition context: Homo sapiens, 72 h, 3 days at 37° C., CELLTITER-GLO luminescence, read-out: Inhibition of Cancerous Cells IC50 (μM) Lovo (G13D)
IC50 listing for selected molecules.
Could you give me the number in µM? Just the number is fine.

Worked examples, 5 molecules total:
COc1cc2c(N[C@@H](C)c3cccc(Br)c3)nc(C)nc2cc1OCCCCCCCCCN1CCN(C(=O)CNc2cccc3c(N4CCC(=O)NC4=O)nn(C)c23)CC1 | 1.9
COc1cc2c(N[C@H](C)c3cccc(Br)c3)nc(C)nc2cc1OCCCCCCCCCN1CCN(C(=O)CNc2ccc(C3CCC(=O)NC3=O)cc2)CC1 (stereo partly drawn) | 0.19
COc1cc2c(N[C@H](C)c3cccc(Br)c3)nc(C)nc2cc1OCCCCCCCCCCCN1CCN(C(=O)CNc2cccc(C3CCC(=O)NC3=O)c2)CC1 (stereo partly drawn) | 0.55
COc1cc2c(N[C@H](C)c3cccc(Br)c3)nc(C)nc2cc1OCCCCCCCN1CCN(C(=O)COc2ccc(N3CCC(=O)NC3=O)cc2)CC1 | 0.69
COc1cc2c(N[C@H](C)c3cccc(Br)c3)nc(C)nc2cc1OCCCCCCCN1CCN(C(=O)COc2cccc(N3CCC(=O)NC3=O)c2)CC1 | 0.94

# input Fill in the blank: the reported IC50 of COc1cc2c(N[C@H](C)c3cccc(Br)c3)nc(C)nc2cc1OCCCCCCCN1CCN(C(=O)CNc2cccc(C3CCC(=O)NC3=O)c2)CC1 (stereo partly drawn) is ____.
# output 0.34

# input # iterate: COc1cc2c(N[C@H](C)c3cccc(Br)c3)nc(C)nc2cc1OCCCCCCCCCN1CCN(C(=O)CNc2ccc3c(C4CCC(=O)NC4=O)nn(C)c3c2)CC1 (stereo partly drawn) [Compound D2]
# output 0.55

# input # iterate: COc1cc2c(N[C@H](C)c3cccc(Br)c3)nc(C)nc2cc1OCCCCCCCCCN1CCN(C(=O)CNc2cccc3c(C4CCC(=O)NC4=O)nn(C)c23)CC1 (stereo partly drawn)
# output 0.42

----------
# Test system: Lovo (G13D) cells
# Experiment description: Cell viability assay (CELLTITER-GLO), Lovo cells
# Format: cell-based
# Condition context: Homo sapiens, 72 h, 3 days at 37° C., CELLTITER-GLO luminescence, read-out: Inhibition of Cancerous Cells IC50 (μM) Lovo (G13D)
IC50 listing for selected molecules.
Could you give me the number in µM? Just the number is fine.

Worked examples, 2 molecules total:
COc1cc2c(N[C@H](C)c3cccc(Br)c3)nc(C)nc2cc1OCCCCCCCCCCCN1CCN(C(=O)CNc2cccc3c(N4CCC(=O)NC4=O)nn(C)c23)CC1 | 1.4
COc1cc2c(N[C@H](C)c3cccc(Br)c3)nc(C)nc2cc1OCCCCCCCN1CCN(C(=O)CNc2cccc3c(C4CCC(=O)NC4=O)nn(C)c23)CC1 (some centres unmarked) | 0.37

# input Fill in the blank: the reported IC50 of `COc1cc2c(N[C@H](C)c3cccc(Br)c3)nc(C)nc2cc1OCCCCCCCCCCCN1CCN(C(=O)COc2cccc(N3CCC(=O)NC3=O)c2)CC1` is ____.
# output 0.74

# input # iterate: `COc1cc2c(N[C@H](C)c3cccc(Br)c3)nc(C)nc2cc1OCCCCCCCCCN1CCN(C(=O)COc2cccc(N3CCC(=O)NC3=O)c2)CC1`
# output 0.63

# input # iterate: COc1cc2c(N[C@H](C)c3cccc(Br)c3)nc(C)nc2cc1OCCCCCCCN1CCN(C(=O)CNc2ccc(C3CCC(=O)NC3=O)cc2)CC1 (some centres unmarked)
# output 0.23

----------
IC50 listing for selected compounds.
# Test system: H358 (G12C) cells
# Experiment description: Cell viability assay (CELLTITER-GLO), H358 cells
# Assay type: cell-based
# Condition context: Homo sapiens, NCI-H358, 72 h, 3 days at 37° C., CELLTITER-GLO luminescence, read-out: Inhibition of Cancerous Cells IC50 (μM) H358 (G12C)
Could you give me the number in µM? Just the number is fine.

COc1cc2c(N[C@H](C)c3cccc(Br)c3)nc(C)nc2cc1OCCCCCCCCCN1CCN(C(=O)COc2cccc(N3CCC(=O)NC3=O)c2)CC1 | 1.9
COc1cc2c(N[C@H](C)c3cccc(Br)c3)nc(C)nc2cc1OCCCCCCCCCCCN1CCN(C(=O)COc2ccc(N3CCC(=O)NC3=O)cc2)CC1 | 3.4
COc1cc2c(N[C@H](C)c3cccc(Br)c3)nc(C)nc2cc1OCCCCCCCCCCCN1CCN(C(=O)CNc2ccc3c(C4CCC(=O)NC4=O)nn(C)c3c2)CC1 (some centres unmarked) | 1.4

# input Form: Entry = `COc1cc2c(N[C@H](C)c3cccc(Br)c3)nc(C)nc2cc1OCCCCCCCCCCCN1CCN(C(=O)COc2cccc(N3CCC(=O)NC3=O)c2)CC1` | System = H358 (G12C) cells | IC50 = ____
# output 3.3

----------
IC50 listing for selected compounds.
# Test system: H358 (G12C) cells
# Experiment description: Cell viability assay (CELLTITER-GLO), H358 cells
# Type: cell-based
# Condition context: Homo sapiens, NCI-H358, 72 h, 3 days at 37° C., CELLTITER-GLO luminescence, read-out: Inhibition of Cancerous Cells IC50 (μM) H358 (G12C)
Could you give me the number in µM? Just the number is fine.

COc1cc2nc(C)nc(N[C@H](C)c3cccc(Br)c3)c2cc1OC [reference compound] | 3.2
COc1cc2c(N[C@H](C)c3cccc(Br)c3)nc(C)nc2cc1OCCCCCN1CCN(C(=O)CNc2ccc(C3CCC(=O)NC3=O)cc2)CC1 (stereo partly drawn) | 1.7
COc1cc2c(N[C@H](C)c3cccc(Br)c3)nc(C)nc2cc1OCCCCCCCN1CCN(C(=O)CNc2ccc3c(C4CCC(=O)NC4=O)nn(C)c3c2)CC1 (stereo partly drawn) [Compound D1] | 2.9
COc1cc2c(N[C@H](C)c3cccc(Br)c3)nc(C)nc2cc1OCCCCCCCCCN1CCN(C(=O)CNc2ccc(C3CCC(=O)NC3=O)cc2)CC1 (stereo partly drawn) | 2
COc1cc2c(N[C@H](C)c3cccc(Br)c3)nc(C)nc2cc1OCCCCCCCCCN1CCN(C(=O)CNc2ccc3c(N4CCC(=O)NC4=O)nn(C)c3c2)CC1 | 6.1

Now take the following compound into account.
# input Fill in the blank: the reported IC50 of `COc1cc2c(N[C@@H](C)c3cccc(Br)c3)nc(C)nc2cc1OCCCCCCCCCN1CCN(C(=O)CNc2cccc3c(N4CCC(=O)NC4=O)nn(C)c23)CC1` is ____.
# output 4.5

----------
# Tested on: Lovo (G13D) cells
# Experiment description: Cell viability assay (CELLTITER-GLO), Lovo cells
# Assay type: cell-based
# Condition context: Homo sapiens, 72 h, 3 days at 37° C., CELLTITER-GLO luminescence, read-out: Inhibition of Cancerous Cells IC50 (μM) Lovo (G13D)
Measured quantity: IC50 (µM)
Could you give me the number in µM? Just the number is fine.

# input Fill in the blank: the reported IC50 of COc1cc2c(N[C@H](C)c3cccc(Br)c3)nc(C)nc2cc1OCCCCCCCN1CCN(C(=O)CNc2ccc3c(C4CCC(=O)NC4=O)nn(C)c3c2)CC1 (stereo partly drawn) [Compound D1] is ____.
# output 1.1

# input # iterate: COc1cc2c(N[C@H](C)c3cccc(Br)c3)nc(C)nc2cc1OCCCCCCCCCCCN1CCN(C(=O)CNc2ccc(C3CCC(=O)NC3=O)cc2)CC1 (stereo partly drawn)
# output 0.48

# input # iterate: `COc1cc2c(N[C@H](C)c3cccc(Br)c3)nc(C)nc2cc1OCCCCCCCCCN1CCN(C(=O)COc2ccc(N3CCC(=O)NC3=O)cc2)CC1`
# output 0.55

# input # iterate: COc1cc2c(N[C@H](C)c3cccc(Br)c3)nc(C)nc2cc1OCCCCCCCCCCCN1CCN(C(=O)CNc2cccc3c(C4CCC(=O)NC4=O)nn(C)c23)CC1 (stereo partly drawn)
# output 0.76

# input # iterate: COc1cc2c(N[C@H](C)c3cccc(Br)c3)nc(C)nc2cc1OCCCCCCCCCCCN1CCN(C(=O)CNc2ccc3c(C4CCC(=O)NC4=O)nn(C)c3c2)CC1 (stereo partly drawn)
# output 0.64

# input # iterate: `COc1cc2c(N[C@H](C)c3cccc(Br)c3)nc(C)nc2cc1OCCCCCCCCCCCN1CCN(C(=O)CNc2ccc3c(N4CCC(=O)NC4=O)nn(C)c3c2)CC1`
# output 1.1

----------
# Tested on: H358 (G12C) cells
# Experiment description: Cell viability assay (CELLTITER-GLO), H358 cells
# Format: cell-based
# Condition context: Homo sapiens, NCI-H358, 72 h, 3 days at 37° C., CELLTITER-GLO luminescence, read-out: Inhibition of Cancerous Cells IC50 (μM) H358 (G12C)
IC50 listing for selected molecules.
Could you give me the number in µM? Just the number is fine.

Worked examples, 4 molecules total:
COc1cc2c(N[C@H](C)c3cccc(Br)c3)nc(C)nc2cc1OCCCCCCCN1CCN(C(=O)COc2ccc(N3CCC(=O)NC3=O)cc2)CC1 | 1.9
COc1cc2c(N[C@H](C)c3cccc(Br)c3)nc(C)nc2cc1OCCCCCCCN1CCN(C(=O)CNc2cccc3c(C4CCC(=O)NC4=O)nn(C)c23)CC1 (stereo partly drawn) | 1.6
COc1cc2c(N[C@H](C)c3cccc(Br)c3)nc(C)nc2cc1OCCCCCCCCCCCN1CCN(C(=O)CNc2cccc3c(C4CCC(=O)NC4=O)nn(C)c23)CC1 (stereo partly drawn) | 6.4
COc1cc2c(N[C@H](C)c3cccc(Br)c3)nc(C)nc2cc1OCCCCCCCN1CCN(C(=O)COc2cccc(N3CCC(=O)NC3=O)c2)CC1 | 1.2

# input Fill in the blank: the reported IC50 of COc1cc2c(N[C@H](C)c3cccc(Br)c3)nc(C)nc2cc1OCCCCCCCCCCCN1CCN(C(=O)CNc2cccc(C3CCC(=O)NC3=O)c2)CC1 (stereo partly drawn) is ____.
# output 2.9
